Listed below: IC50 values for each entry.
# tested on: Recombinant Human NF-kappaB-Inducing Kinase (NIK/MAP3K14) (Homo sapiens)
# Sequence (Q99558 whole entry): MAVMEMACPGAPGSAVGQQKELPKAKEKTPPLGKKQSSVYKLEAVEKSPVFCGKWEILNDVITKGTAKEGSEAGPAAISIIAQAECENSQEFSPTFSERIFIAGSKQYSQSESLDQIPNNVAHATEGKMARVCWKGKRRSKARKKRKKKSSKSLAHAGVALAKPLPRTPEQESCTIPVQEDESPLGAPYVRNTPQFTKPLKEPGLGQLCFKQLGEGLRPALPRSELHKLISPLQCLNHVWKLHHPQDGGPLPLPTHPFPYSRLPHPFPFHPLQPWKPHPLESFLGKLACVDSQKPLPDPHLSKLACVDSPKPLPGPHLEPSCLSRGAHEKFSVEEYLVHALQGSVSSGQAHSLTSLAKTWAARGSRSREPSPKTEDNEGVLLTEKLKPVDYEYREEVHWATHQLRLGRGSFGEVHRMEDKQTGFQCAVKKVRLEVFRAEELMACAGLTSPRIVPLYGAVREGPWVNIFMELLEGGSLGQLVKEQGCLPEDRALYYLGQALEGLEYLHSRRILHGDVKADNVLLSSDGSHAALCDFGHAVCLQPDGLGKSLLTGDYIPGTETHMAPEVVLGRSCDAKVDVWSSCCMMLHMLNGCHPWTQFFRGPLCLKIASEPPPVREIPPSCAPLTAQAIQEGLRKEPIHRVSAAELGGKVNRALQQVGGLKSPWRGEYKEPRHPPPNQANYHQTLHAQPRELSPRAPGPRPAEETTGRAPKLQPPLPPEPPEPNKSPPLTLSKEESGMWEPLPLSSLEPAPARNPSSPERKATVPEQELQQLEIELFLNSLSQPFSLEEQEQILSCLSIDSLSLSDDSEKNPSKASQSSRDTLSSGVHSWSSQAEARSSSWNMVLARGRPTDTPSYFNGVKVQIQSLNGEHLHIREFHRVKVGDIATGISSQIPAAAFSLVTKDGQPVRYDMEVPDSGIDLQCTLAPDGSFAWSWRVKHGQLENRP
# test: Inhibition of auto-phosphorylation of recombinant human NIK/MAP3K14 activity (AlphaScreen)
# protocol conditions: 5 μM ATP, 1 nM NIK, average if tested more than once

compound	tested on	IC50
CN1CC[C@@](O)(c2cccc(-c3nc(-c4ccnc(N[C@@H]5CCC[C@H]5O)n4)cs3)c2)C1=O	Recombinant Human NF-kappaB-Inducing Kinase (NIK/MAP3K14) (Homo sapiens)	0.1 to 0.5 µM
CC(=O)N1CC(Nc2nccc(-c3csc(-c4cccc([C@]5(O)CCN(C)C5=O)c4)n3)n2)C1	Recombinant Human NF-kappaB-Inducing Kinase (NIK/MAP3K14) (Homo sapiens)	0.1 to 0.5 µM
CN1CC[C@@](O)(c2cccc(-c3csc(-c4ccnc(Nc5cnn(C(CO)CO)c5)n4)n3)c2)C1=O	Recombinant Human NF-kappaB-Inducing Kinase (NIK/MAP3K14) (Homo sapiens)	< 0.1 µM
CC(Nc1nccc(-c2csc(-c3cccc([C@]4(O)CCN(C)C4=O)c3)n2)n1)c1ccn(C)n1 (stereo partly drawn)	Recombinant Human NF-kappaB-Inducing Kinase (NIK/MAP3K14) (Homo sapiens)	< 0.1 µM
CN1CCC(O)(c2cncc(-c3csc(-c4ccnc(Nc5ccnn5C)n4)n3)c2)C1=O (single isomer, unassigned)	Recombinant Human NF-kappaB-Inducing Kinase (NIK/MAP3K14) (Homo sapiens)	< 0.1 µM
CN1CC[C@@](O)(c2cccc(-c3nc(-c4ccnc(Nc5cn(C)nc5OC(F)F)n4)cs3)c2)C1=O	Recombinant Human NF-kappaB-Inducing Kinase (NIK/MAP3K14) (Homo sapiens)	< 0.1 µM

---

Listed below: IC50 values for each entry.
# Test system: p-IKKa levels in L363 (NIK translocated multiple myeloma) cells
# test: Effect of compounds on p-IKKa levels in L363 (NIK translocated multiple myeloma) cells (AlphaLISA SureFire Ultra p-IKKa Ser176/180)
# Assay type: cell-based, human
# protocol conditions: Homo sapiens, L-363, p-IKKa levels in L363 cells; average if tested more than once; read-out: Assay 2 IC50

molecule	tested on	IC50
CN1CC[C@@](O)(c2cccc(-c3nc(-c4ccnc(Nc5cnn(CC6CC6)c5)n4)cs3)c2)C1=O	p-IKKa levels in L363 (NIK translocated multiple myeloma) cells	100 to 500 nM
CN1CC[C@@](O)(c2cccc(-c3nc(-c4ccnc(NC5CCOc6cccnc65)n4)cs3)c2)C1=O (stereo partly drawn)	p-IKKa levels in L363 (NIK translocated multiple myeloma) cells	> 501 nM
CN1CC[C@@](O)(c2cccc(-c3nc(-c4ccnc(Nc5cnn(C6CCOC6)c5)n4)cs3)c2)C1=O (single isomer, unassigned)	p-IKKa levels in L363 (NIK translocated multiple myeloma) cells	100 to 500 nM
CN1CC[C@@](O)(c2cccc(-c3nc(-c4ccnc(Nc5cccc(OC(F)(F)F)n5)n4)cs3)c2)C1=O	p-IKKa levels in L363 (NIK translocated multiple myeloma) cells	> 501 nM
CN1CC[C@@](O)(c2cccc(-c3nc(-c4ccnc(Nc5ccnn5C5COC5)n4)cs3)c2)C1=O	p-IKKa levels in L363 (NIK translocated multiple myeloma) cells	> 501 nM
CN1CC[C@@](O)(c2cccc(-c3ccn(-c4ccnc(Nc5cn(CC(F)F)nc5OC5CC5)n4)n3)c2)C1=O	p-IKKa levels in L363 (NIK translocated multiple myeloma) cells	< 100 nM
CC(=O)N1CC(Nc2nccc(-c3csc(-c4cccc([C@]5(O)CCN(C)C5=O)c4)n3)n2)C1	p-IKKa levels in L363 (NIK translocated multiple myeloma) cells	> 501 nM
Cc1sc(-c2cccc([C@]3(O)CCN(C)C3=O)c2)nc1-c1ccnc(Nc2ccn(C)n2)n1	p-IKKa levels in L363 (NIK translocated multiple myeloma) cells	> 501 nM
CN1CCC(n2cc(Nc3nccc(-c4nc(-c5cccc([C@]6(O)CCN(C)C6=O)c5)cs4)n3)cn2)CC1	p-IKKa levels in L363 (NIK translocated multiple myeloma) cells	100 to 500 nM
CN1CC[C@@](O)(c2cccc(-c3csc(-c4ccnc(Nc5cnn(CC6CC6)c5)n4)n3)c2)C1=O	p-IKKa levels in L363 (NIK translocated multiple myeloma) cells	> 501 nM
CN1CC[C@@](O)(c2cccc(-c3nc(-c4ccnc(NCCCS(C)(=O)=O)n4)cs3)c2)C1=O	p-IKKa levels in L363 (NIK translocated multiple myeloma) cells	> 501 nM
CN1CC[C@@](O)(c2cccc(-c3nc(-c4ccnc(NC5(c6ccccn6)CC5)n4)cs3)c2)C1=O	p-IKKa levels in L363 (NIK translocated multiple myeloma) cells	> 501 nM
CN1CC[C@@](O)(c2cccc(-c3nc(-c4ccnc(NC5CCN(S(C)(=O)=O)CC5)n4)cs3)c2)C1=O	p-IKKa levels in L363 (NIK translocated multiple myeloma) cells	> 501 nM
CN1CC[C@@](O)(c2cccc(-c3nc(-c4ccnc(Nc5cccnc5C(F)(F)F)n4)cs3)c2)C1=O	p-IKKa levels in L363 (NIK translocated multiple myeloma) cells	> 501 nM
CN1CC[C@@](O)(c2cccc(-c3nc(-c4ccnc(NCCCO)n4)cs3)c2)C1=O	p-IKKa levels in L363 (NIK translocated multiple myeloma) cells	> 501 nM
CN1CC[C@@](O)(c2cccc(-c3nc(-c4ccnc(NCc5ncco5)n4)cs3)c2)C1=O	p-IKKa levels in L363 (NIK translocated multiple myeloma) cells	> 501 nM
CN1CC[C@@](O)(c2cccc(-c3nc(-c4nc(Nc5ccn(C)n5)ncc4F)cs3)c2)C1=O	p-IKKa levels in L363 (NIK translocated multiple myeloma) cells	> 501 nM
Cc1cc(Nc2nccc(-c3nc(-c4cccc([C@]5(O)CCN(C)C5=O)c4)cs3)n2)n(C)n1	p-IKKa levels in L363 (NIK translocated multiple myeloma) cells	> 501 nM
CN1CC[C@@](O)(c2cccc(-c3nc(-c4ccnc(Nc5nn(C)c6ccccc56)n4)cs3)c2)C1=O	p-IKKa levels in L363 (NIK translocated multiple myeloma) cells	> 501 nM
CNC(=O)c1cc(Nc2nccc(-c3csc(-c4cccc([C@]5(O)CCN(C)C5=O)c4)n3)n2)n(C2CCCC2)n1	p-IKKa levels in L363 (NIK translocated multiple myeloma) cells	100 to 500 nM
CN1CC[C@@](O)(c2cccc(-c3nc(-c4ccnc(NCCS(C)(=O)=O)n4)cs3)c2)C1=O	p-IKKa levels in L363 (NIK translocated multiple myeloma) cells	> 501 nM

The reported measurements were obtained from patent US20250304567A1.
